Target: T1, Pus7 D256A/N305A (Saccharomyces cerevisiae, UniProt Q08647 1-676, D256A;N305A)
T1 sequence: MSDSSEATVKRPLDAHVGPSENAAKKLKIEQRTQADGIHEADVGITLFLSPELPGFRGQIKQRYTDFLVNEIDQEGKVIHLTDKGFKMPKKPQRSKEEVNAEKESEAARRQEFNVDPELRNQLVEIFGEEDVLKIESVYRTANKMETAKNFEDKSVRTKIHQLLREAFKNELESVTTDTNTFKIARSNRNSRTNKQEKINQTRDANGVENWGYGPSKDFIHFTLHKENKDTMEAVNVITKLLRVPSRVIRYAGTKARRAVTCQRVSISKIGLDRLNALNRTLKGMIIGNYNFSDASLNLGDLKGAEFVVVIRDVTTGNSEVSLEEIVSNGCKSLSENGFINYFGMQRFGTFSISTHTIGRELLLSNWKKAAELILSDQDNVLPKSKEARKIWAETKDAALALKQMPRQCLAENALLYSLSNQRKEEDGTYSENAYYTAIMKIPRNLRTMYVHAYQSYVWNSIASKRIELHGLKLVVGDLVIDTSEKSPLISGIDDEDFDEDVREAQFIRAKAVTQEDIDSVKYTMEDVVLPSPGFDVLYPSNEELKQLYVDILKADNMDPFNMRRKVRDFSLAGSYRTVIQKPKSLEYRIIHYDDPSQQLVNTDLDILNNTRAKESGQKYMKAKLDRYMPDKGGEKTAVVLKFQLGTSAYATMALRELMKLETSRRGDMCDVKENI
Assay: EMSA
property name: Kd (nM)
Reply with just the number (in nM).

Exercise: Name the reported Kd value associated with the binder CDC8 (cdc8-FL, 61 nt) (ssRNA) RNA: GUCAAUCACGAUUGUAGACGUUACUAAUAAGGGCAUUCAGGAAGUUGAAGCGCUUAUUUGG
Solution: 230
